100 nM Ag Bound values, listed per item
# TARGET_OR_TEST_SYSTEM: T1, Macaca fascicularis IL2Rγ extracellular domain expressed with a C-terminal myc-myc-hexahistidine tag (Macaca fascicularis)
# T1 construct: also called mfIL-2Rg-MMH; mfIL-2RG-MMH
# T1 chain: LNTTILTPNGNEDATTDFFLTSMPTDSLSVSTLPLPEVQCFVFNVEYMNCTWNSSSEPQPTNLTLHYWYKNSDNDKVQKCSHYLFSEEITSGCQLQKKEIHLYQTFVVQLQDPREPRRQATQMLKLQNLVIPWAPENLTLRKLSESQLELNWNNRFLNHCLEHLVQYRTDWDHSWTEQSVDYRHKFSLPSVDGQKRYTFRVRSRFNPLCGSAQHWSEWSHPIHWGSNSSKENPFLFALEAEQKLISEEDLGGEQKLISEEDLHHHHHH
# EXPERIMENT: SPR Biacore 4000, mAb captured by anti-hFc, HBS-ET, 25C
Provide the reading as a plain figure in RU.

BINDER	UNIT_NAME	NUMERIC_VALUE
H4H13538P (antibody, human IgG4 S228P, kappa, V domains shown, anti-IL2Rγ monoclonal antibody expressed with human IgG4 Fc) VH: EVQLVESGGGLVQPGGSLGLSCAASGFTFSNYAMSWVRQAPGKGLEWVSAVSGGGGGTYYADSVKGRFTISRDNSKNTVLLQMNSLRAEDTAVYYCARGRTGGLDYWGPGTLVTVSS VL: DVVMTQSPLSLPVIFGQPASISCRSSQSLVDSDGNTYLNWLQQRPGQSPRRLIYEVSNRDSGVPDRFSGSGSGTDFTLTISRVEAEDVGIYYCMQGTRWPPTFGGGTKVEIKR	RU	81

Moving on to another binder below.
-- ask What value of 100 nM Ag Bound has been reported for the following binder? H4H12889P (antibody, human IgG4 S228P, kappa, V domains shown, anti-IL2Rγ monoclonal antibody expressed with human IgG4 Fc; also called REGN7257) VH: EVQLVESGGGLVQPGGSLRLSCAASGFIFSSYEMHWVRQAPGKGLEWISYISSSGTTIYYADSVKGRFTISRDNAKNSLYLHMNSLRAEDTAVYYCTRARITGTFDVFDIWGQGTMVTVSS VL: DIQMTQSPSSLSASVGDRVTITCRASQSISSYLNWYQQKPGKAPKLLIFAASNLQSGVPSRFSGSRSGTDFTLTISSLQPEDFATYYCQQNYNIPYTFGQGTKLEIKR
-- reply 59
